molecular target: 5-HT7 receptor (Homo sapiens, UniProt P34969); construct: expressed in transfected cells; host or cells: HEK293 or CHO; assay: 5-HT receptor radioligand binding affinity assay, 7
Sequence (P34969 whole entry): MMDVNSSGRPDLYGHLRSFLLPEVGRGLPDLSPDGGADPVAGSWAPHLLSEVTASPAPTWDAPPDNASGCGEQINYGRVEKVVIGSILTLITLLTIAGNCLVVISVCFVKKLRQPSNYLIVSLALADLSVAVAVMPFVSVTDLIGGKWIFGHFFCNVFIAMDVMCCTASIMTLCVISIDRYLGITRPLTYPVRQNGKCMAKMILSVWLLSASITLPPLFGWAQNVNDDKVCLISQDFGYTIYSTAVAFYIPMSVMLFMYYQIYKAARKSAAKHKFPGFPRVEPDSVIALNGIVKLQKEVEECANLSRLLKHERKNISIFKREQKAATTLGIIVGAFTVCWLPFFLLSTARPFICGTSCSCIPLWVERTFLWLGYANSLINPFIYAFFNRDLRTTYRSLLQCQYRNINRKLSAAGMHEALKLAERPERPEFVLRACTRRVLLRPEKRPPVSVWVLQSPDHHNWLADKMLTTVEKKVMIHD
# Lookup of reported Ki keyed by entry
Units required after the number.

{"Compound": "C[C@@H](Oc1nc(N2CCCNCC2)ncc1F)c1cccc(F)c1 [10a]", "Ki": "1020 nM"}

[ask] // lookup Ki for C[C@@H]1CNCCN1c1ncc(F)c(O[C@H](C)c2ccc(F)cc2)n1 [compound 8, reference compound]
[reply] 528 nM

[ask] // lookup Ki for C[C@@H](Oc1nc(N2CCCNCC2)ncc1F)c1ccc(F)cc1 [10f]
[reply] 616 nM

====

target: 5-HT2C receptor (Homo sapiens, UniProt P28335); test: 5-HT2C receptor cell-based functional assay (agonist mode, fluorescence-based); details: HEK293, read-out: %activation (10 μM)
Sequence (P28335 33-458): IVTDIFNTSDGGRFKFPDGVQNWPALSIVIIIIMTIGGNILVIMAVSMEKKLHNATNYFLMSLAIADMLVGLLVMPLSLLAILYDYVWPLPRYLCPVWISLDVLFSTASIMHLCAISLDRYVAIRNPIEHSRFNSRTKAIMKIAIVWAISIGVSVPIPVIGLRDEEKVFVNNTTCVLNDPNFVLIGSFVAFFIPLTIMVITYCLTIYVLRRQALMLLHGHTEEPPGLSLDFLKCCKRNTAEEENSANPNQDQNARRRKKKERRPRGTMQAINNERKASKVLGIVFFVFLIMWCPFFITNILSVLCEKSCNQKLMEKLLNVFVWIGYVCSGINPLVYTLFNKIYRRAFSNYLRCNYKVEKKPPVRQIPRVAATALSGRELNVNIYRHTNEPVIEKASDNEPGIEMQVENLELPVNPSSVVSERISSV
# Lookup of reported activation at 10 µM keyed by entry

Recorded results for 3 compounds are shown here.
{"Smiles Input": "C[C@@H]1CNCCN1c1ncc(Oc2cccc(F)c2)cn1", "activation at 10 µM": "35%"}
{"Smiles Input": "C[C@@H]1CNCCN1c1ncc(Oc2ccc(F)cc2)cn1", "activation at 10 µM": "26%"}
{"Smiles Input": "C[C@@H]1CNCCN1c1ncc(OCc2ccc(F)cc2)cn1", "activation at 10 µM": "48%"}

[ask] // lookup activation at 10 µM for Fc1ccc(CCOc2cnc(N3CCCNCC3)nc2)cc1
[reply] -1%

====

assay: Microsomal stability; type: in vitro ADME; settings: pH 7.4, human liver microsomes, read-out: HLM %Remaining @ 1 μM after 0.5 h
Observation Type: remaining at 0.5 h, 1 μM (%)
Number in %, nothing else.

[ask] // lookup remaining at 0.5 h, 1 μM for C[C@@H](Oc1nc(N2CCCNCC2)ncc1F)c1cccc(F)c1 [10a]
[reply] 96.6

====

target: 5-HT2C receptor (Homo sapiens, UniProt P28335); test: 5-HT2C receptor cell-based functional assay (agonist mode, fluorescence-based); conditions: HEK293, read-out: %activation (10 μM)
# activation at 10 µM >= 10% gives condition met, anything below gives condition not met

{"Compound": "C[C@@H]1CNCCN1c1ncc(OCCc2ccc(F)cc2)cn1 [9l]", "Assigned Label": "condition met"}
{"Compound": "Fc1cccc(COc2cnc(N3CCCNCC3)nc2)c1 [9n]", "Assigned Label": "condition not met"}
{"Compound": "Fc1cccc(Oc2cnc(N3CCCNCC3)nc2)c1 [9m]", "Assigned Label": "condition met"}
{"Compound": "C[C@@H]1CNCCN1c1ncc(OCCc2cccc(F)c2)cn1 [9i]", "Assigned Label": "condition met"}

[ask] Hi team, for Fc1ccc(COc2cnc(N3CCCNCC3)nc2)cc1 [9q] , is the recorded activation at 10 µM at or above 10%?
[reply] condition met

[ask] Hi team, for Fc1ccc(Oc2cnc(N3CCCNCC3)nc2)cc1 [9p] , is the recorded activation at 10 µM at or above 10%?
[reply] condition met

[ask] Hi team, for C[C@@H]1CNCCN1c1ncc(OCc2cccc(F)c2)cn1 [9h] , is the recorded activation at 10 µM at or above 10%?
[reply] condition met

[ask] Hi team, for Fc1cccc(CCOc2cnc(N3CCCNCC3)nc2)c1 [9o] , is the recorded activation at 10 µM at or above 10%?
[reply] condition not met
